All values here come from PubChem BioAssay.

Reported viability values for a set of compounds
assay: reversal of MRP1-mediated doxorubicin resistance, pilot screen, H69AR cells, doxorubicin co-treatment (AID 601); conditions: H69AR cells, CellTiter-Glo, 72 h; compound alone cytotoxicity; at 10 µM
# number only, unit % dropped from output

Reference set (5 entries):
O=C(CCCSc1nc2ccccc2s1)NC1=NCCS1: 93.7
COc1cccc(NC(=O)N2CCC(N3CCCCC3)CC2)c1: 94.5
C[C@H](CS)C(=O)N1CCC[C@H]1C(=O)O: 99.8
C=CCn1c(=O)[nH]c2cc(C(=O)N3CCN(c4ccc(C(C)=O)cc4)CC3)ccc2c1=O: 92.4
COc1cccc(OC)c1C(=O)Nc1ccccc1N1CCCC1: 91.6

Query :: Let me know recorded viability for CCN1CCN(Cc2c(C)[nH]c3ccc(OC)cc3c2=O)CC1 , thanks.
Result :: 93.5

Query :: Let me know recorded viability for COc1ccccc1N(CC(=O)NC1CCCC1)C(=O)c1csnn1 , thanks.
Result :: 90

Query :: Let me know recorded viability for CCOC(=O)c1ccc(NC(=O)N2CCN(CCc3ccccc3)CC2)cc1 , thanks.
Result :: 101

Query :: Let me know recorded viability for COc1ccccc1-c1c(C)nn2c(N3CCC4(CC3)OCCO4)cc(C)nc12 , thanks.
Result :: 60

Query :: Let me know recorded viability for Cn1c(-c2ccc(C(C)(C)C)cc2)n[nH]c1=S , thanks.
Result :: 82.1

Query :: Let me know recorded viability for CCOC(=O)Cc1nnc(NC(=O)CSc2nnc3c4ccccc4n(C(C)C)c3n2)s1 , thanks.
Result :: 75.6

Query :: Let me know recorded viability for C=CCNC(=O)CNS(=O)(=O)c1ccc(F)cc1 , thanks.
Result :: 95.4

Query :: Let me know recorded viability for Cc1ccccc1NS(=O)(=O)c1ccc(NC(=O)c2ccco2)cc1 , thanks.
Result :: 89.2

Query :: Let me know recorded viability for CCN(c1ccc2c(c1)OCO2)S(=O)(=O)c1cc(Br)cc2c1N(C(=O)C1CC1)CC2 , thanks.
Result :: 73.9

###

assay: Restrictive medium S. cerevisiae growth inhibition, OD615, pilot screen of yeast lifespan reduction project, restrictive growth control (AID 706); conditions: OD615, 48 h, at 10 µM, stronger effect = higher value;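 note: modified DeaD lifespan yeast strain shifted to restrictive glucose medium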
Reported growth inhibition values for a set of compounds
# number only, unit % dropped from output

Reference set (3 entries):
O=C(C1CCN(c2nnc(-n3cccc3)s2)CC1)N1CCN(Cc2ccc3c(c2)OCO3)CC1: 10.1
N#Cc1ccccc1Cn1c(=O)n(Cc2ccc(C(=O)NCc3ccco3)cc2)c(=O)c2sccc21: -22.5
COc1ccc(N2C(=O)CC(N3CCCC4CCCCC43)C2=O)cc1 (stereo not given): 3.25

Query :: Let me know recorded growth inhibition for CC(C)COC(=O)C1C2C=CC3(CN(C(C)c4ccc(Br)cc4)C(=O)C13)O2 (stereo not given) , thanks.
Result :: 5.3

Query :: Let me know recorded growth inhibition for CSc1nc2ccc(Nc3nc(N4CCOCC4)nc(N4CCOCC4)n3)cc2s1 , thanks.
Result :: -5.7

Query :: Let me know recorded growth inhibition for CCOc1ccccc1N1C(=O)c2ccc(C(=O)Nc3cccnc3)cc2C1=O , thanks.
Result :: -21.7

Query :: Let me know recorded growth inhibition for Cc1ccc(-c2cc(C(F)F)nc(NCC3CCCO3)n2)cc1 (stereo not given) , thanks.
Result :: -9

Query :: Let me know recorded growth inhibition for Cc1cccc(-n2c(=O)cc(N3CCN(c4ccc(F)cc4)CC3)[nH]c2=O)c1 , thanks.
Result :: -8.2

Query :: Let me know recorded growth inhibition for CC(NC(=O)c1cn(C)c2ccc(S(=O)(=O)N3CCCC3)cc2c1=O)c1ccc2c(c1)OCCO2 (stereo not given) , thanks.
Result :: -24.8

Query :: Let me know recorded growth inhibition for Cc1csc(NC(=O)CSc2nnc(Cc3cccn3C)n2-c2ccc(F)cc2)n1 , thanks.
Result :: -0.31
